Source listed as PubChem BioAssay AID2060487.

# System: 997537-175-T-J1-PDC complex spheroid viability
# test.description: Anticancer human tumor 997537-175-T-J1-PDC patient-derived colon adenocarcinoma cell line growth inhibition [GQUAD]
# condition.parameters: second compound 1 µM; first compound 0.00999 µM; stronger effect = lower value
# Description: DNA G-quadruplex Stabilizer Agents in Combinations in Complex Spheroids A high-throughput screen of multi-cell type tumor spheroids was designed to identify active combinations of DNA G-quadruplex stabilizer agents and targeted small molecules. […] Compounds. […] If the clinical Cmax for an agent had not been determined, the highest concentration tested was 10 microM. […]
Lab note - cut at 90% for viability, T/C: TRUE if strictly below, FALSE if not.

### Prompt Say whether its viability, T/C is strictly beneath 90%. Entry: Cc1[nH]c2ccccc2c1CCNCc1ccc(/C=C/C(=O)NO)cc1 + Cc1[nH]c2ccc(F)cc2c1-c1nc2c3cccnc3c3ncccc3c2[nH]1
### Response FALSE

### Prompt Try this molecule next: Cn1ncnc1[C@H]1c2n[nH]c(=O)c3cc(F)cc(c23)N[C@@H]1c1ccc(F)cc1 + Cc1cnc(CNC(=O)c2c(=O)c3ccc(N4CCCN(C)CC4)nc3n3c2sc2ccccc23)cn1
### Response FALSE

### Prompt Try this molecule next: CC[C@@]1(O)C(=O)OCc2c1cc1n(c2=O)Cc2cc3c(CN(C)C)c(O)ccc3nc2-1 + CN(C)c1ccc(Nc2c3ccc(NC(=O)CCN4CCCC4)cc3nc3cc(NC(=O)CCN4CCCC4)ccc23)cc1
### Response FALSE

### Prompt Try this molecule next: CCc1c2c(nc3ccc(O)cc13)-c1cc3c(c(=O)n1C2)COC(=O)[C@]3(O)CC + Cc1cnc(CNC(=O)c2c(=O)c3ccc(N4CCCN(C)CC4)nc3n3c2sc2ccccc23)cn1
### Response TRUE

---

# Tested on: 997537-175-T-J1-PDC complex spheroid viability
# test.description: Anticancer human tumor 997537-175-T-J1-PDC cell line growth inhibition [GQUAD];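 further: spheroids exposed to the agents for 7 days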
# condition.parameters: curve of first compound; second compound 0.0316 µM
measured.attribute: IC50 (µM)
Provide only the numeric value, understood in µM.

### Prompt Record CC1COCCN1c1cc(-c2ccnn2C)c2ccnc(-c3ccn[nH]3)c2n1 (centres undefined) + Cc1[nH]c2ccc(F)cc2c1-c1nc2c3cccnc3c3ncccc3c2[nH]1 : what is its IC50 with 997537-175-T-J1-PDC complex spheroid viability?
### Response 0.209

### Prompt Try this compound next: Cc1[nH]c2ccccc2c1CCNCc1ccc(/C=C/C(=O)NO)cc1 + CN(C)c1ccc(Nc2c3ccc(NC(=O)CCN4CCCC4)cc3nc3cc(NC(=O)CCN4CCCC4)ccc23)cc1
### Response 0.301

### Prompt Try this compound next: CC(=O)O[C@H]1C(=O)[C@@]2(C)[C@H]([C@H](OC(=O)c3ccccc3)[C@]3(O)C[C@H](OC(=O)[C@H](O)[C@@H](NC(=O)c4ccccc4)c4ccccc4)C(C)=C1C3(C)C)[C@]1(OC(C)=O)CO[C@@H]1C[C@@H]2O + CN(C)c1ccc(Nc2c3ccc(NC(=O)CCN4CCCC4)cc3nc3cc(NC(=O)CCN4CCCC4)ccc23)cc1
### Response 0.0791

### Prompt Try this compound next: COc1ncnc(C2CC2)c1-c1ncc2cnn(Cc3ccc(-c4nc(C(F)(F)F)cn4C(C)C)cc3)c2n1 + Cc1[nH]c2ccc(F)cc2c1-c1nc2c3cccnc3c3ncccc3c2[nH]1
### Response 9.19

### Prompt Try this compound next: CC1COCCN1c1cc(C2(O)CC3CCC(C2)O3)c2cnn(-c3ccn[nH]3)c2n1 (centres undefined) + Cc1[nH]c2ccc(F)cc2c1-c1nc2c3cccnc3c3ncccc3c2[nH]1
### Response 0.303

### Prompt Try this compound next: CC1COCCN1c1cc(C2(O)CC3CCC(C2)O3)c2cnn(-c3ccn[nH]3)c2n1 (centres undefined) + CN(C)c1ccc(Nc2c3ccc(NC(=O)CCN4CCCC4)cc3nc3cc(NC(=O)CCN4CCCC4)ccc23)cc1
### Response 0.786

### Prompt Try this compound next: COc1cccc2c1C(=O)c1c(O)c3c(c(O)c1C2=O)CC(O)(C(=O)CO)CC3OC1CC(N)C(O)C(C)O1 (centres undefined) + CN(C)c1ccc(Nc2c3ccc(NC(=O)CCN4CCCC4)cc3nc3cc(NC(=O)CCN4CCCC4)ccc23)cc1
### Response 6.55
